Target: UniProtKB P12527
Sequence (P12527 whole entry): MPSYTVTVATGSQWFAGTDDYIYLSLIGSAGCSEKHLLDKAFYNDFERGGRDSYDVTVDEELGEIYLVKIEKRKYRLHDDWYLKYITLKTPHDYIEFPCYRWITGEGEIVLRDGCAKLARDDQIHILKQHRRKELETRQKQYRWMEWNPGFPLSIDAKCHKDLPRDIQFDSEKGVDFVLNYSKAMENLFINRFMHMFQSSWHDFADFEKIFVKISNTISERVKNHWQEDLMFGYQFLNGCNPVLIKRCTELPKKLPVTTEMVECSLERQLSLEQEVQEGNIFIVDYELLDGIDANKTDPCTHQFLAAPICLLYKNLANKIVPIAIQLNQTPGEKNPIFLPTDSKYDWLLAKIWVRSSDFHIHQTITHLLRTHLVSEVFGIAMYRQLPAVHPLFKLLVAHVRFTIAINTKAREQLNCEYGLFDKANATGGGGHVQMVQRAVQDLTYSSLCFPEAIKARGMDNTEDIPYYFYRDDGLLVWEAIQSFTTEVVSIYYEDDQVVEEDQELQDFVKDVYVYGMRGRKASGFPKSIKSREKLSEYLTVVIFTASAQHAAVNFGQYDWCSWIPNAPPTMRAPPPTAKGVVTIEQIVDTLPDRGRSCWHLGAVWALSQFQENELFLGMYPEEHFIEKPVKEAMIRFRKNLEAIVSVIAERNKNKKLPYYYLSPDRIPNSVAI
measure_name: IC50 (µM)
Report the value in µM with no unit label.

GET /values?readout=IC50&item= NC(=O)N(O)C1CCCc2cc(OCc3ccccc3)ccc21 (stereo in doubt; 3a)
1.8

In the following, a different compound is considered.
Query (compound): NC(=O)N(O)C1CCn2c1cc1cc(Cl)ccc12 (configuration not stated) ; field requested: IC50
1.3

---

Biological target: Polyunsaturated fatty acid 5-lipoxygenase (Rattus norvegicus, UniProt P12527)
Sequence (P12527 whole entry): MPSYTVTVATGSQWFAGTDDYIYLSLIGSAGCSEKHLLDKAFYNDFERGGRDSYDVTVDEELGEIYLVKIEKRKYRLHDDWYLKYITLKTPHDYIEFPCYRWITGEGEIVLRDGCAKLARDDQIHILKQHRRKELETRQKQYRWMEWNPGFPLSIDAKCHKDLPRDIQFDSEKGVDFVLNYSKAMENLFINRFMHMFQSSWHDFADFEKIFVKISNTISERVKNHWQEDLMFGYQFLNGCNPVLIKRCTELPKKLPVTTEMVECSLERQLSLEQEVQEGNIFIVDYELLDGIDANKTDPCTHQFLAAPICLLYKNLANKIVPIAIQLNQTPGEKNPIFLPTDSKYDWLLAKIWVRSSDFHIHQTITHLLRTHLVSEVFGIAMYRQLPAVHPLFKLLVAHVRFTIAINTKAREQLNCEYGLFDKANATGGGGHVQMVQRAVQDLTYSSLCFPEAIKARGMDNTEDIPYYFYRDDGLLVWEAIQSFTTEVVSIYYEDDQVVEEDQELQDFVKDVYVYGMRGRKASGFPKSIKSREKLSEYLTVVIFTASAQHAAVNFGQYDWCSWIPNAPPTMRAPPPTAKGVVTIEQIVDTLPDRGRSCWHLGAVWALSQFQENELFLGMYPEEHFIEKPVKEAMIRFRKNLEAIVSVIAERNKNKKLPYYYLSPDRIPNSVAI
pIC50: −log10 of the molar value.
Each entry gets f if its pIC50 stays under 6, and t if its pIC50 is 6 or above.

Solved cases below.
Is pIC50 at least 6? Consider COc1ccc(COc2ccc3c(c2)CCCC3N(O)C(N)=O)cc1 (stereo not given)
t

Check the entry NC(=O)N(O)C1CCn2c1cc1ccccc12 (stereo not given) : does pIC50 equal or exceed 6?
f

Does pIC50 meet or surpass 6 for NC(=O)N(O)C1CCn2c1cc1cc(OCc3ccccc3)ccc12 (stereo not given) ?
t

In plain terms: is recorded pIC50 at least 6 for NC(=O)N(O)C1COc2cc(Oc3ccccc3)ccc21 (stereo not given) ?
f

Does the reported pIC50 for COc1ccc(COc2ccc3c(c2)OCC3N(O)C(N)=O)cc1 (stereo not given) fall at or above the 6 mark?
f

Reported pIC50 reaches at least 6 for NC(=O)N(O)C1COc2c1ccc1ccccc21 (stereo not given) ?
f

Now look at this entry.
Decide: is the reported value of pIC50 for Cc1c2n(c3ccc(C(C)C)cc13)CCC2N(O)C(N)=O (stereo not given) equal to or greater than 6?
f
